// data source = patent US10906873B2

Tested on: rice (Oryza sativa)
method: Test B flooded paddy test, rice
Type: in vivo
experimental-conditions: Flood, 250 g ai/ha; scale of 0 to 100 where 0 is no effect and 100 is complete control; 13 to 15 d
result-type: Plant response rating, Rice
Provide a numeric answer; units are not to be included.

Answered examples (4):
# compound, Plant response rating, Rice
measured = [
    ("O=C1NCC(/C=C/c2cccc(F)c2)C1C(=O)Nc1ccccc1F (centres unmarked)", 0),
    ("Cc1cccc(C#CC2CNC(=O)C2C(=O)Nc2cccc(F)c2F)c1 (centres unmarked)", 0),
    ("O=C(Nc1cccc(C(F)(F)F)c1)C1CNC(=O)C1C(=O)Nc1cccc(F)c1F (centres unmarked)", 15),
    ("O=C1NCC(C#Cc2cccc(Cl)c2)C1C(=O)Nc1ccccc1F (centres unmarked) [Compound 25]", 20),
]

Exercise: # input compound: O=C1NCC(/C=C/c2ccccc2)C1C(=O)Nc1ccccc1F (centres unmarked) ; wanted: its Plant response rating, Rice
Key: 0

====

System: rice (Oryza sativa)
method: Test B flooded paddy test, rice
Format: in vivo
experimental-conditions: Flood, 250 g ai/ha; scale of 0 to 100 where 0 is no effect and 100 is complete control; 13 to 15 d
Below, each entry is listed with its recorded Plant response rating, Rice.

Answered examples (4):
# compound, Plant response rating, Rice
records = [
    ("O=C1NCC(Cc2ccc(F)cc2)C1C(=O)Nc1cccc(F)c1F (centres unmarked) [Compound 13]", 0),
    ("O=C1NCC(CCc2ccccc2)C1C(=O)Nc1cccc(F)c1F (centres unmarked) [Compound 35]", 0),
    ("O=C1NCC(/C=C/c2ccc(F)cc2)C1C(=O)Nc1ccccc1F (centres unmarked) [Compound 27]", 0),
    ("O=C1NCC(/C=C/c2ccc(F)cc2)C1C(=O)Nc1cccc(F)c1F (centres unmarked) [Compound 31]", 15),
]

Exercise: # input compound: O=C1NCC(/C=C/c2cccc(F)c2)C1C(=O)Nc1cccc(F)c1F (centres unmarked) [Compound 30] ; wanted: its Plant response rating, Rice
Key: 15

====

Tested on: foxtail, giant (giant foxtail, Setaria faberii)
method: Test A postemergence, foxtail, giant
Assay type: in vivo
experimental-conditions: 125 g ai/ha, 0 to 100 scale
result-type: Plant response rating, Foxtail, Giant
Provide a numeric answer; units are not to be included.

Answered examples (4):
# molecule, Plant response rating, Foxtail, Giant
rows = [
    ("O=C1NCC(C#Cc2ccc(F)cc2)C1C(=O)Nc1ccc(F)c(F)c1F (stereo not drawn)", 0),
    ("O=C1NCC(/C=C/c2ccc(F)cc2)C1C(=O)Nc1cccc(F)c1F (stereo not drawn)", 30),
    ("Cc1cccc(C#CC2CNC(=O)C2C(=O)Nc2ccc(F)c(F)c2F)c1 (stereo not drawn)", 20),
    ("O=C1NCC(/C=C/c2ccccc2)C1C(=O)Nc1cccc(F)c1F (stereo not drawn)", 70),
]

Exercise: # input molecule: O=C1NCC(Cc2cccc(C(F)(F)F)c2)C1C(=O)Nc1cccc(F)c1F (stereo not drawn) ; wanted: its Plant response rating, Foxtail, Giant
Key: 0

Exercise: Same for O=C1NCC(/C=C/c2cccc(F)c2)C1C(=O)Nc1cccc(F)c1F (stereo not drawn)
Key: 40

Exercise: Same for O=C1NCC(C#Cc2cccc(Cl)c2)C1C(=O)Nc1ccccc1F (stereo not drawn) [Compound 25]
Key: 30

Exercise: Same for O=C1NCC(Cc2ccccc2C(F)(F)F)C1C(=O)Nc1cccc(F)c1F (stereo not drawn)
Key: 0

Exercise: Same for O=C(Nc1cccc(C(F)(F)F)c1)C1CNC(=O)C1C(=O)Nc1cccc(F)c1F (stereo not drawn)
Key: 20

Exercise: Same for O=C1NCC(CCc2ccccc2)C1C(=O)Nc1cccc(F)c1F (stereo not drawn)
Key: 0

Exercise: Same for O=C1NCC(Cc2ccc(C(F)(F)F)cc2)C1C(=O)Nc1ccccc1C(F)(F)F (stereo not drawn)
Key: 0

Exercise: Same for O=C1NCC(Cc2cccc(F)c2F)C1C(=O)Nc1cccc(F)c1F (stereo not drawn)
Key: 0

====

Below, each entry is listed with its recorded Plant response rating, Foxtail, Giant.
Tested on: foxtail, giant (giant foxtail, Setaria faberii)
method: Test A postemergence, foxtail, giant
Format: in vivo
experimental-conditions: 125 g ai/ha, 0 to 100 scale
Description: Seeds of plant species selected from barnyardgrass (Echinochloa crus-galli), crabgrass (large crabgrass, Digitaria sanguinalis), kochia (Kochia scoparia), ragweed (common ragweed, Ambrosia elatior), morningglory (Ipomoea spp.), velvetleaf (Abutilon theophrasti), ryegrass, It. […] Treated plants and untreated controls were maintained in a greenhouse for approximately 10 d, after which time all treated plants were compared to untreated controls and visually evaluated for injury. […]

Answered examples (5):
# compound, Plant response rating, Foxtail, Giant
records = [
    ("Cc1cccc(C#CC2CNC(=O)C2C(=O)Nc2cccc(F)c2F)c1 (stereo not drawn)", 20),
    ("O=C1NCC(CCc2ccccc2)C1C(=O)Nc1ccccc1F (stereo not drawn)", 0),
    ("O=C1NCC(Cc2ccc(F)c(F)c2)C1C(=O)Nc1cccc(F)c1F (stereo not drawn)", 0),
    ("O=C1NCC(C#Cc2cccc(Cl)c2)C1C(=O)Nc1ccccc1F (stereo not drawn) [Compound 29]", 0),
    ("O=C1NCC(/C=C/c2ccccc2F)C1C(=O)Nc1ccccc1F (stereo not drawn)", 20),
]

Exercise: # input compound: O=C1NCC(/C=C/c2cccc(F)c2)C1C(=O)Nc1ccccc1F (stereo not drawn) ; wanted: its Plant response rating, Foxtail, Giant
Key: 30

====

Tested on: rice (Oryza sativa)
method: Test B flooded paddy test, rice
Format: in vivo
experimental-conditions: Flood, 250 g ai/ha; scale of 0 to 100 where 0 is no effect and 100 is complete control; 13 to 15 d
result-type: Plant response rating, Rice
Provide a numeric answer; units are not to be included.

# compound, result-type, quantitative-result
measured = [
    ("O=C1NCC(/C=C/c2ccccc2)C1C(=O)Nc1cccc(F)c1F (centres unmarked)", "Plant response rating, Rice", 0),
    ("Cc1cccc(C#CC2CNC(=O)C2C(=O)Nc2ccc(F)c(F)c2F)c1 (centres unmarked)", "Plant response rating, Rice", 0),
    ("O=C1NCC(/C=C/c2ccccc2F)C1C(=O)Nc1ccccc1F (centres unmarked)", "Plant response rating, Rice", 15),
]

Exercise: # input compound: O=C1NCC(C#Cc2ccc(F)cc2)C1C(=O)Nc1ccccc1F (centres unmarked) ; wanted: its Plant response rating, Rice
Key: 0

Exercise: Same for O=C1NCC(C#Cc2cccc(Cl)c2)C1C(=O)Nc1ccccc1F (centres unmarked) [Compound 29]
Key: 0

====

Below, each entry is listed with its recorded Plant response rating, Kochia.
Test system: kochia (Kochia scoparia)
method: Test A preemergence, kochia
Type: in vivo
experimental-conditions: 500 g ai/ha, 0 to 100 scale
Provide a numeric answer; units are not to be included.

Answered examples (4):
# molecule, quantitative-result
measured = [
    ("O=C1NCC(Cc2ccc(C(F)(F)F)cc2)C1C(=O)Nc1ccccc1C(F)(F)F (stereo not shown)", 0),
    ("O=C1NCC(/C=C/c2cccc(F)c2)C1C(=O)Nc1cccc(F)c1F (stereo not shown)", 80),
    ("Cc1cccc(C#CC2CNC(=O)C2C(=O)Nc2cccc(F)c2F)c1 (stereo not shown)", 20),
    ("O=C1NCC(Cc2ccc(F)c(F)c2)C1C(=O)Nc1cccc(F)c1F (stereo not shown)", 0),
]

Now for a further molecule.
Exercise: # input molecule: O=C1NCC(Cc2cccc(F)c2F)C1C(=O)Nc1ccccc1C(F)(F)F (stereo not shown) ; wanted: its Plant response rating, Kochia
Key: 0

====

Test system: kochia (Kochia scoparia)
method: Test A preemergence, kochia
Type: in vivo
experimental-conditions: 500 g ai/ha, 0 to 100 scale
From the text: Seeds of plant species selected from barnyardgrass (Echinochloa crus-galli), crabgrass (large crabgrass, Digitaria sanguinalis), kochia (Kochia scoparia), ragweed (common ragweed, Ambrosia elatior), morningglory (Ipomoea spp.), velvetleaf (Abutilon theophrasti), ryegrass, It. […] Treated plants and untreated controls were maintained in a greenhouse for approximately 10 d, after which time all treated plants were compared to untreated controls and visually evaluated for injury. […]
Below, each entry is listed with its recorded Plant response rating, Kochia.

# compound, assay-target, Plant response rating, Kochia
data = [
    ("Cc1cccc(C#CC2CNC(=O)C2C(=O)Nc2ccc(F)c(F)c2F)c1 (stereo not shown)", "kochia (Kochia scoparia)", 0),
]

Exercise: # input compound: O=C1NCC(Cc2ccccc2C(F)(F)F)C1C(=O)Nc1ccccc1C(F)(F)F (stereo not shown) ; wanted: its Plant response rating, Kochia
Key: 0

Exercise: Same for O=C1NCC(C#Cc2cccc(Cl)c2)C1C(=O)Nc1ccccc1F (stereo not shown) [Compound 25]
Key: 60

Exercise: Same for O=C1NCC(Cc2cccc(C(F)(F)F)c2)C1C(=O)Nc1cccc(F)c1F (stereo not shown)
Key: 0

====

Tested on: foxtail, giant (giant foxtail, Setaria faberii)
method: Test A preemergence, foxtail, giant
Format: in vivo
experimental-conditions: 500 g ai/ha, 0 to 100 scale
Below, each entry is listed with its recorded Plant response rating, Foxtail, Giant.

# compound, result-type, result
rows = [
    ("O=C(CCC1CNC(=O)C1C(=O)Nc1ccccc1F)Nc1ccc(F)cc1 (centres unmarked) [Compound 15]", "Plant response rating, Foxtail, Giant", 0),
    ("O=C1NCC(Cc2ccccc2C(F)(F)F)C1C(=O)Nc1cccc(F)c1F (centres unmarked) [Compound 9]", "Plant response rating, Foxtail, Giant", 50),
    ("O=C1NCC(Cc2cccc(F)c2F)C1C(=O)Nc1ccccc1C(F)(F)F (centres unmarked) [Compound 10]", "Plant response rating, Foxtail, Giant", 0),
    ("O=C1NCC(Cc2ccc(C(F)(F)F)cc2)C1C(=O)Nc1ccccc1C(F)(F)F (centres unmarked) [Compound 6]", "Plant response rating, Foxtail, Giant", 0),
]

Exercise: Query Plant response rating, Foxtail, Giant on foxtail, giant (giant foxtail, Setaria faberii) for O=C1NCC(Cc2ccccc2C(F)(F)F)C1C(=O)Nc1ccccc1C(F)(F)F (centres unmarked) [Compound 5]
Key: 0

Exercise: Same for O=C1NCC(/C=C/c2ccc(F)cc2)C1C(=O)Nc1ccccc1F (centres unmarked) [Compound 27]
Key: 60

Exercise: Same for O=C1NCC(/C=C/c2ccccc2)C1C(=O)Nc1ccccc1F (centres unmarked) [Compound 32]
Key: 80

Exercise: Same for O=C1NCC(CCc2ccccc2)C1C(=O)Nc1cccc(F)c1F (centres unmarked) [Compound 35]
Key: 60

Exercise: Same for O=C1NCC(/C=C/c2cccc(F)c2)C1C(=O)Nc1ccccc1F (centres unmarked) [Compound 24]
Key: 90

Exercise: Same for Cc1cccc(C#CC2CNC(=O)C2C(=O)Nc2ccc(F)c(F)c2F)c1 (centres unmarked) [Compound 23]
Key: 80

Exercise: Same for O=C1NCC(C#Cc2cccc(Cl)c2)C1C(=O)Nc1ccccc1F (centres unmarked) [Compound 25]
Key: 90

Exercise: Same for O=C1NCC(Cc2cccc(C(F)(F)F)c2)C1C(=O)Nc1cccc(F)c1F (centres unmarked) [Compound 11]
Key: 0
